Each item that follows carries a reported Ratios of EC50 values: MC1/4.
TARGET_UNDER_TEST: melanocortin-1 receptor (human, UniProt Q01726 1-317)
Sequence (Q01726 whole entry): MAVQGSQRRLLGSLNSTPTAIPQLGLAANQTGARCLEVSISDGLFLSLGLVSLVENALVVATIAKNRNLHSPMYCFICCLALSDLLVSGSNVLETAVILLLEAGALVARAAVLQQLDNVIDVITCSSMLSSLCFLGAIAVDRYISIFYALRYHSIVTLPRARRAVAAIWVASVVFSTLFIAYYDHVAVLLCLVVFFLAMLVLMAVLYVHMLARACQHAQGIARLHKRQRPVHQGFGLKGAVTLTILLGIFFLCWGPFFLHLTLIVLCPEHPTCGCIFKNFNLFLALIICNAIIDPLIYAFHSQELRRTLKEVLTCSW
ASSAY_REMARKS: cell-based or functional assay
Bridge positions count the residues as written; N and C are the ends. Square brackets hold non-standard residues; d marks the D form.
Respond with the number and no other words.

{"BINDER": "Ac-RC[dA]Q[dF]RWC-NH2 (disulfide 2-8; SMILES CC(=O)N[C@@H](CCCNC(=N)N)C(=O)N[C@H]1CSSC[C@@H](C(N)=O)NC(=O)[C@H](Cc2c[nH]c3ccccc23)NC(=O)[C@H](CCCNC(=N)N)NC(=O)[C@@H](Cc2ccccc2)NC(=O)[C@H](CCC(N)=O)NC(=O)[C@@H](C)NC1=O) [Compound 8: Ac-Arg-cyclo[Cys-D-Ala-Gln-D-Phe-Arg-Trp-Cys]-NH2]", "VAL": 40}

Consider the additional binder presented here.
Qu. Give the measured Ratios of EC50 values: MC1/4 of Ac-RC[dA]W[dF]RWC-NH2 (disulfide 2-8; SMILES CC(=O)N[C@@H](CCCNC(=N)N)C(=O)N[C@H]1CSSC[C@@H](C(N)=O)NC(=O)[C@H](Cc2c[nH]c3ccccc23)NC(=O)[C@H](CCCNC(=N)N)NC(=O)[C@@H](Cc2ccccc2)NC(=O)[C@H](Cc2c[nH]c3ccccc23)NC(=O)[C@@H](C)NC1=O) [Compound 7: Ac-Arg-cyclo[Cys-D-Ala-Trp-D-Phe-Arg-Trp-Cys]-NH2] .
Ans. 8

Every entry's value here was drawn from patent US20160022764A1.
